Record form. Attribute: pIC50. Fill in for each entry.
API: returns pIC50 as number; meaning -log10 of concentration in mol/L.

Param readout = pIC50; param system = (cocaine derivative [^3 H]WIN35,428 binding, striatum) (Rattus norvegicus); param query = COC(CNc1ccccc1)CN1CCN(CCCC(c2ccc(F)cc2)c2ccc(F)cc2)CC1 (stereo not drawn) ; response: value 7.63

Param readout = pIC50; param system = (cocaine derivative [^3 H]WIN35,428 binding, striatum) (Rattus norvegicus); param query = CN(CC(O)CN1CCN(CCCC(c2ccc(F)cc2)c2ccc(F)cc2)CC1)c1ccccc1 (stereo not drawn) ; response: value 7.46

Param readout = pIC50; param system = (cocaine derivative [^3 H]WIN35,428 binding, striatum) (Rattus norvegicus); param query = O=[N+]([O-])c1ccc(NCC(O)CN2CCN(CCCC(c3ccc(F)cc3)c3ccc(F)cc3)CC2)cc1 (stereo not drawn) ; response: value 7.25

Param readout = pIC50; param system = (cocaine derivative [^3 H]WIN35,428 binding, striatum) (Rattus norvegicus); param query = OC(CNc1ccccc1)CN1CCN(CCCC(c2ccc(F)cc2)c2ccc(F)cc2)CC1 (stereo not drawn) [Compound 1] ; response: value 7.35

Param readout = pIC50; param system = (cocaine derivative [^3 H]WIN35,428 binding, striatum) (Rattus norvegicus); param query = OC(CNc1ccccc1)CN1CCN(CCC(c2ccc(F)cc2)c2ccc(F)cc2)CC1 (stereo not drawn) ; response: value 7.82

Param readout = pIC50; param system = (cocaine derivative [^3 H]WIN35,428 binding, striatum) (Rattus norvegicus); param query = Nc1ccc(NCC(O)CN2CCN(CCCC(c3ccc(F)cc3)c3ccc(F)cc3)CC2)cc1 (stereo not drawn) ; response: value 6.27

----------
Record form. Attribute: IC50. Fill in for each entry.
Write the answer as a number in nM, unit excluded.

Param readout = IC50; param system = (cocaine derivative [^3 H]WIN35,428 binding, striatum) (Rattus norvegicus); param query = COc1cc(NCC(O)CN2CCN(CCCC(c3ccc(F)cc3)c3ccc(F)cc3)CC2)cc(OC)c1OC (centres unmarked) ; response: value 197

Param readout = IC50; param system = (cocaine derivative [^3 H]WIN35,428 binding, striatum) (Rattus norvegicus); param query = OC(CNc1ccccc1)CN1CCN(C(c2ccc(F)cc2)c2ccc(F)cc2)CC1 (centres unmarked) ; response: value 51.6

Param readout = IC50; param system = (cocaine derivative [^3 H]WIN35,428 binding, striatum) (Rattus norvegicus); param query = OC(CNc1ccccc1)CN1CCN(CCCC(c2ccc(F)cc2)c2ccc(F)cc2)CC1 (single isomer, unassigned) [Compound 15] ; response: value 37.6

Param readout = IC50; param system = (cocaine derivative [^3 H]WIN35,428 binding, striatum) (Rattus norvegicus); param query = OC(CNc1ccccc1)CN1CCN(CCCCC(c2ccc(F)cc2)c2ccc(F)cc2)CC1 (centres unmarked) ; response: value 41.2

Param readout = IC50; param system = (cocaine derivative [^3 H]WIN35,428 binding, striatum) (Rattus norvegicus); param query = OC(CNc1ccccc1)CN1CCN(CCCC(c2ccc(F)cc2)c2ccc(F)cc2)CC1 (single isomer, unassigned; (+)) [Compound 16] ; response: value 52.6

Param readout = IC50; param system = (cocaine derivative [^3 H]WIN35,428 binding, striatum) (Rattus norvegicus); param query = OC(CNc1ccccc1)CN1CCN(CC(c2ccccc2)c2ccccc2)CC1 (centres unmarked) ; response: value 72.2

Param readout = IC50; param system = (cocaine derivative [^3 H]WIN35,428 binding, striatum) (Rattus norvegicus); param query = OC(CNc1ccc(F)cc1)CN1CCN(CCCC(c2ccc(F)cc2)c2ccc(F)cc2)CC1 (centres unmarked) ; response: value 46.8

Param readout = IC50; param system = (cocaine derivative [^3 H]WIN35,428 binding, striatum) (Rattus norvegicus); param query = CC(=O)N(CC(O)CN1CCN(CCCC(c2ccc(F)cc2)c2ccc(F)cc2)CC1)c1ccccc1 (centres unmarked) ; response: value 49.5
